Origin of measurements: ChEMBL document CHEMBL1157506

Hi there, I'd appreciate the recorded Ki for every entry that follows.
Provide the reading as a plain figure in µM.

What is its Ki for Muscarinic acetylcholine receptor M3 (Homo sapiens, UniProt P20309)? Entry: CN1CCC[C@@H]1c1ccco1
81.3

Missing value: Ki, Muscarinic acetylcholine receptor M3 (Homo sapiens, UniProt P20309), entry Cc1ccc([C@@H]2CCCN2C)o1 . Fill in?
33.1

// lookup Ki | system=Muscarinic acetylcholine receptor M3 (Homo sapiens, UniProt P20309) | key= CN1CCCC1c1ccco1 (racemic)
44.7

Form: Entry = C[N+]1(C)CCCC1c1ccco1.[I-] (racemic) | System = Muscarinic acetylcholine receptor M3 (Homo sapiens, UniProt P20309) | Ki = ____
2.75

What measured Ki is associated with Cc1ccc([C@H]2CCC[N+]2(C)C)o1.[I-] on Muscarinic acetylcholine receptor M3 (Homo sapiens, UniProt P20309)?
7.76

Reported Ki for Muscarinic acetylcholine receptor M3 (Homo sapiens, UniProt P20309), given CN1CCC[C@H]1c1ccco1 ?
52.5

What measured Ki is associated with Cc1ccc([C@@H]2CCC[N+]2(C)C)o1.[I-] on Muscarinic acetylcholine receptor M3 (Homo sapiens, UniProt P20309)?
2.69

---

Organism: Cavia porcellus
Test description: Intrinsic activity at muscarinic M2 receptor in guinea pig atrium assessed as effect on inotropic activity relative to control
Format: tissue-based
Setup conditions: Cardiac atrium
Kindly supply the reported Intrinsic activity values for the records listed here.

Look at this molecule and give its reported Intrinsic activity. CN1CCCC1c1ccco1 (racemic)
0.4

What does the data say about its Intrinsic activity? Entry: C[N+]1(C)CCC[C@@H]1c1ccco1.[I-]
0.4

Any idea what Intrinsic activity was measured for Cc1ccc([C@@H]2CCCN2)o1 ?
0.6

# input molecule: Cc1ccc([C@H]2CCCN2C)o1 ; wanted: its Intrinsic activity
0.32

What value of measured Intrinsic activity is listed for C[N+]1(C)CCC[C@H]1c1ccco1.[I-] ?
0.3
